test system: p16-3MR mice; assay: Next generation sequencing of circulating miRNAs in serum after induction (dox) and removal (GCV) of senescent cells; assay type: in vivo, mouse; settings: serum miRNA, NGS, dox-treated p16-3MR mice
The threshold is 200 TPM. Values of avg TPM dox beneath it are tagged yes (1); values meeting or exceeding it are tagged no (0).

Previously resolved entries follow.
>  <substance>
mmu-let-7f-5p: circulating microRNA, SEQ ID No. 2 (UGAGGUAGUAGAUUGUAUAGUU; expressed or natural sequence; listed as Homo sapiens)

>  <class>
yes (1)

$$$$
>  <substance>
miR-34a-5p: circulating microRNA biomarker, SEQ ID No. 1 (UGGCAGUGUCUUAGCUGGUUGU; expressed or natural sequence; listed as Homo sapiens)

>  <class>
yes (1)

$$$$
>  <substance>
mmu-miR-144-5p: circulating microRNA, SEQ ID No. 7 (GGAUAUCAUCAUAUACUGUAAG; expressed or natural sequence; listed as Homo sapiens)

>  <class>
yes (1)

$$$$
>  <substance>
mmu-miR-143-3p: circulating microRNA, SEQ ID No. 4 (UGAGAUGAAGCACUGUAGCUC; expressed or natural sequence; listed as Homo sapiens)

>  <class>
no (0)

$$$$

Okay, next one:
Prompt: Bench note: check whether miR-27a-3p: circulating microRNA biomarker, SEQ ID No. 5 (UUCACAGUGGCUAAGUUCCGC; expressed or natural sequence; listed as Homo sapiens) shows avg TPM dox below 200 TPM
Completion: yes (1)

---

Test system: p16-3MR mice
Test: ROC analysis of discriminatory power of circulating microRNAs
Format: in vivo, mouse
Conditions: serum, RT-qPCR, DOX vs PBS; symbol after the number = significance
Experimental: Statistical analysis was performed using Medcalc (version 18.2.1). Normal distribution was assessed using D'Agostino-Pearson test, where normality was accepted at p>0.05. One-way ANOVA together together with Student-Newman-Keuls test for all pairwise comparisons (post-hoc tests) was used to identify significant changes between groups (p<0.05). […] ROC curves were plotted using sensitivity (y-axis) and 1-specificity (x-axis) and the area under the ROC curve (AUC) was calculated. […]
Entries and their ROC Analysis AUC Senescence
Record the value in °, omitting the unit from your answer.

>  <substance>
miR-24-3p: circulating microRNA biomarker, SEQ ID No. 21 (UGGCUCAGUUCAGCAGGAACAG; expressed or natural sequence; listed as Homo sapiens)

>  <measured-value>
0.609

$$$$

For the next question, use this substance.
Prompt: For miR-27a-3p: circulating microRNA biomarker, SEQ ID No. 5 (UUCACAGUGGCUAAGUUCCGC; expressed or natural sequence; listed as Homo sapiens) , write its ROC Analysis AUC Senescence.
Completion: 0.664

---

system: p16-3MR mice; experiment: ROC analysis of discriminatory power of circulating microRNAs; type: in vivo, mouse; settings: serum, RT-qPCR, DOX vs PBS; symbol after the number = significance
Entries and their ROC Analysis AUC Senescence
Record the value in °, omitting the unit from your answer.

>  <substance>
miR-375-5p: circulating microRNA biomarker, SEQ ID No. 88 (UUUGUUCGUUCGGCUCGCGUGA; expressed or natural sequence; listed as Homo sapiens)

>  <result-unit>
°

>  <ROC Analysis AUC Senescence>
0.570

$$$$

Prompt: For miR-215-5p: circulating microRNA biomarker, SEQ ID No. 86 (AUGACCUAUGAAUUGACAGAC; expressed or natural sequence; listed as Homo sapiens) , write its ROC Analysis AUC Senescence.
Completion: 0.531
